What follows is a collection of IC50 values obtained with HCMV NO protease (Human cytomegalovirus, UniProt P16753).
Sequence (P16753 1-256): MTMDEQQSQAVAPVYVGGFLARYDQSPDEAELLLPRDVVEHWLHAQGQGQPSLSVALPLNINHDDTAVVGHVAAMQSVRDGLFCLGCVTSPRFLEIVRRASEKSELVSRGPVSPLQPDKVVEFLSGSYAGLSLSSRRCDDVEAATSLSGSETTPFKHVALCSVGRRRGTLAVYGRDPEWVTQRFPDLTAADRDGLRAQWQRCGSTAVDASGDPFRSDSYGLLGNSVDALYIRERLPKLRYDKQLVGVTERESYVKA
Give bare numbers, in µM.

Below are worked cases with known answers.
CC[C@@H](NC(=O)N1C(=O)C[C@H]1C(C)(C)C)c1ccccc1
41
CC[C@@H](NC(=O)N1C(=O)C[C@@H]1CCc1ccccc1)c1ccccc1
4.3
CC[C@@H](NC(=O)N1C(=O)C[C@@H]1Cc1ccccc1)c1ccccc1
2.6
C[C@@H]1C(=O)N(C(=O)N(C)Cc2ccccc2)[C@H]1Cc1ccccc1
4.2
O=C1C[C@H](Cc2ccccc2)N1C(=O)NC1CCc2ccccc21 (stereo partly drawn)
14

Value sought for every listed molecule: IC50.
1. O=C1C[C@H](Cc2ccccc2)N1C(=O)N1CCc2ccccc2C1
2. CN(Cc1ccc([N+](=O)[O-])cc1)C(=O)N1C(=O)C[C@@H]1Cc1nnn(C)n1
3. CC[C@@H](NC(=O)N1C(=O)C[C@@H]1C(C)C)c1ccccc1
4. CN(Cc1ccccc1[N+](=O)[O-])C(=O)N1C(=O)C[C@@H]1Cc1ccccc1

Data returned:
1: 36; 2: 2.7; 3: 5.9; 4: 6.9
